Entry source: PubChem BioAssay (NCI)

tested on: SNB-19 CNS; assay: NCI-60 one-dose screen, 48 h (100 = growth as untreated, 0 = no growth, -100 = all killed); conditions: 10 µM unless noted
The panel holds about 83,000 compounds, 20% with a hit somewhere; the sample as a whole holds those more often.
QUANTITY: growth (%)
Give the number; % is assumed, so skip it.

Lookup: Lab note: need growth for `O=C(O)Cc1ccccn1` on SNB-19 CNS, anyone have it?
Found: 101

Lookup: Lab note: need growth for `CCCCCCCCCCCCCCCCCCSC(=N)N` on SNB-19 CNS, anyone have it?
Found: 89.2

Lookup: Lab note: need growth for `CCCCNc1ccc(-c2ccc(NCCCC)cc2)cc1` on SNB-19 CNS, anyone have it?
Found: 77.3

Lookup: Lab note: need growth for CC1CN(CCO)CC(C)O1 (stereo not drawn) on SNB-19 CNS, anyone have it?
Found: 102

Lookup: Lab note: need growth for Nc1ncnc2c1ncn2C1OC(CO)C2OC21 (stereo not drawn) on SNB-19 CNS, anyone have it?
Found: 118

Lookup: Lab note: need growth for `COc1nc(Nc2cccc(C(F)(F)F)c2)nc(OC)n1` on SNB-19 CNS, anyone have it?
Found: 101

Lookup: Lab note: need growth for `Cn1/c(=N\N=C\c2ccccc2OCCO)sc2ccccc21` on SNB-19 CNS, anyone have it?
Found: 96.7

Lookup: Lab note: need growth for `CCOC(=O)CNC` on SNB-19 CNS, anyone have it?
Found: 100

Lookup: Lab note: need growth for `O=C(OC1CCCC1)c1ccccc1Cl` on SNB-19 CNS, anyone have it?
Found: 105

Lookup: Lab note: need growth for `Cc1ccc(N)c(S(=O)(=O)O)c1` on SNB-19 CNS, anyone have it?
Found: 99.5

====

tested on: MOLT-4 leukemia; assay: NCI-60 one-dose screen, 48 h (100 = growth as untreated, 0 = no growth, -100 = all killed); conditions: 10 µM unless noted
About 83,000 compounds went through this panel and 20% of them were active in at least one assay; those are over-represented in the sample as a whole.
Here, each record is paired with measured growth data.
Give the number; % is assumed, so skip it.

Answered cases to consult:
{"COMPOUND": "Clc1cccc(Cl)c1C1CSc2ccccc2N=C1c1ccccc1 (configuration not stated)", "EXPERIMENTAL RESULT": 20.1}
{"COMPOUND": "O=C(O)c1ccc(OCc2ccccc2)cc1", "EXPERIMENTAL RESULT": 98}
{"COMPOUND": "Cc1ccc(Cc2ccc(C)cc2)cc1", "EXPERIMENTAL RESULT": 97.2}
{"COMPOUND": "Cc1ccccc1NC(=O)Oc1ccc(Cl)cc1C(=O)c1ccccc1", "EXPERIMENTAL RESULT": 86.3}
{"COMPOUND": "C=COC(=O)C(C)(C)C", "EXPERIMENTAL RESULT": 92.5}
{"COMPOUND": "Cc1cc(=O)n(Nc2ccccc2)c(O)c1C#N", "EXPERIMENTAL RESULT": 103}

Below: the item to evaluate.
Lookup: Lab note: need growth for `O=[N+]([O-])c1ccc(-c2nc(N(CCO)CCO)c3ccccc3n2)o1` on MOLT-4 leukemia, anyone have it?
Found: 12.5
